What IC50 was measured for each of the following?
- study.target: CCK-Receptor (Rattus norvegicus, UniProt P30551)
- Construct: Pancreatic plasma membranes were prepared by the method of Chang et al
- Sequence (P30551 whole entry): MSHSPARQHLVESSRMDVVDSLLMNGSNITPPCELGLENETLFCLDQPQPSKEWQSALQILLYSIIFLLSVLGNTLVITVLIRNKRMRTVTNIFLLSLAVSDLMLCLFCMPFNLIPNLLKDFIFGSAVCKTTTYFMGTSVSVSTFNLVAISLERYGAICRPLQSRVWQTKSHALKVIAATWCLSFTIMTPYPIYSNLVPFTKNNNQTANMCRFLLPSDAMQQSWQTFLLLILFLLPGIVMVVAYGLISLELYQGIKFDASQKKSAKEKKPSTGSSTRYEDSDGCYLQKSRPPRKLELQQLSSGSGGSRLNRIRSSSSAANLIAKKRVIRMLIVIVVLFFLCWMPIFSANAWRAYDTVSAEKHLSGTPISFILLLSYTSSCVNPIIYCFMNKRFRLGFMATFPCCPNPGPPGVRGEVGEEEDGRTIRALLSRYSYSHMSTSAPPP
- assay: CCK-Receptor Binding Assay in Pancreas
- condition.summary: inhibition of specific 125I-CCK-8 (30 pM) binding, rat pancreatic plasma membranes, 37° C., 30 minutes, pH 7.4
Answers are plain numbers, in nM.

Quick request: IC50 for each listed item, please.
1. CCCCCN(CCCc1ccccc1)C(=O)C(CCC(=O)O)CS(=O)(=O)c1ccc(Cl)c(Cl)c1 (stereo not shown)
2. CCCCCN(CCCCC)C(=O)C(CCC(=O)O)CS(=O)(=O)c1ccc(C(C)=O)cc1 (stereo not shown)
3. CCCCCN(CCCCC)C(=O)C(CCC(=O)O)CS(=O)(=O)c1ccc(C)cc1 (stereo not shown)
4. CCCCCN(CCCCC)C(=O)C(CC(=O)OC)CS(=O)(=O)c1ccc(Cl)c(Cl)c1 (stereo not shown)

1. 110
2. 2000
3. 3400
4. 980

###

Would you mind telling me the reported pIC50 of each entry?
- study.target: CCK-Receptor (Rattus norvegicus)
- Construct: Pancreatic plasma membranes were prepared by the method of Chang et al
- assay: CCK-Receptor Binding Assay in Pancreas
- condition.summary: inhibition of specific 125I-CCK-8 (30 pM) binding, rat pancreatic plasma membranes, 37° C., 30 minutes, pH 7.4
Numbers only, as −log10 of the molar value.

Known pIC50 results, listed for orientation:
compound: CCCCCN(CCCOC)C(=O)C(CCC(=O)O)CS(=O)(=O)c1ccc(Cl)c(Cl)c1 (single isomer, unassigned) [Compound 24]
pIC50: 5.40

compound: CCCCCCN(CCCCCC)C(=O)C(CCC(=O)O)CS(=O)(=O)c1ccc(Cl)c(Cl)c1 (racemic)
pIC50: 7.23

compound: CCCCCN(CCCCC)C(=O)C(CCC(=O)O)CS(=O)(=O)c1ccc(Cl)c(Cl)c1 (single isomer, unassigned) [Compound 21]
pIC50: 5.96

compound: CCCCCN(CCc1ccccc1)C(=O)C(CCC(=O)O)CS(=O)(=O)c1ccc(Cl)c(Cl)c1 (centres unmarked)
pIC50: 6.68

compound: CN(Cc1ccccc1)C(=O)C(CCC(=O)O)CS(=O)(=O)c1ccc(Cl)c(Cl)c1 (centres unmarked)
pIC50: 5.74

Kindly give each listed record's pIC50.
1. CCCCCN(CCCCC)C(=O)C(CCCC(=O)OC)CS(=O)(=O)c1ccc(Cl)c(Cl)c1 (centres unmarked)
2. CCCCCCN(CCCCc1ccccc1)C(=O)C(CCC(=O)O)CS(=O)(=O)c1ccc(Cl)c(Cl)c1 (centres unmarked)
3. CCCCCN(CCCCC)C(=O)C(CCC(=O)O)CS(=O)(=O)c1ccc(Cl)c(Cl)c1 (racemic) [Compound 19]
4. CCCCCN(CCCCC)C(=O)C(CCC(=O)OCC)CS(=O)(=O)c1ccc(Cl)c(Cl)c1 (centres unmarked)
5. O=C(O)CCC(CS(=O)(=O)c1ccc(Cl)c(Cl)c1)C(=O)N(CCc1ccccc1)CCc1ccccc1 (centres unmarked)
6. CCCCCN(CCCCC)C(=O)C(CCC(=O)O)CS(=O)(=O)c1ccc([N+](=O)[O-])cc1 (centres unmarked)
7. CCCCCN(CCCCC)C(=O)C(CCC(=O)O)CS(=O)(=O)c1ccc(C)c(C)c1 (centres unmarked)
8. CCCCCN(CCCCC)C(=O)C(CCC(=O)O)CS(=O)(=O)c1cc(Cl)cc(Cl)c1 (centres unmarked)

1. 5.32
2. 6.24
3. 6.70
4. 5.96
5. 6.64
6. 6.14
7. 6.54
8. 5.82

I have 7 compounds here; please give me pIC50 for each one.
1. CCCCCN(CCCOC)C(=O)C(CCC(=O)O)CS(=O)(=O)c1ccc(Cl)c(Cl)c1 (single isomer, unassigned) [Compound 23]
2. O=C(O)CCC(CS(=O)(=O)c1ccc(Cl)c(Cl)c1)C(=O)N(CCCc1ccccc1)CCCc1ccccc1 (centres unmarked)
3. CCCCCCN(CCCCc1ccccc1)C(=O)C(CCC(=O)OC)CS(=O)(=O)c1ccc(Cl)c(Cl)c1 (centres unmarked)
4. CCCCCN(CCCCC)C(=O)C(CCC(=O)O)CS(=O)(=O)c1ccc(Cl)cc1 (centres unmarked)
5. CCCCCN(CCCCC)C(=O)C(CCC(=O)OC)CS(=O)(=O)c1ccc(Cl)c(Cl)c1 (racemic)
6. CC(C)CCN(CCC(C)C)C(=O)C(CCC(=O)O)CS(=O)(=O)c1ccc(Cl)c(Cl)c1 (racemic)
7. CCCCCCCN(CCCCCCC)C(=O)C(CCC(=O)O)CS(=O)(=O)c1ccc(Cl)c(Cl)c1 (racemic)

[6.54, 6.00, 5.24, 6.00, 6.06, 6.89, 6.37]

Below are some compounds; for each one, tell me its pIC50.
1. CCCCCN(CCCCC)C(=O)C(CCC(=O)O)CS(=O)(=O)c1cccc(Br)c1 (racemic)
2. CCCCN(C)C(=O)C(CCC(=O)O)CS(=O)(=O)c1ccc(Cl)c(Cl)c1 (racemic)
3. CCCCCN(CCCCC)C(=O)C(CC(=O)O)CS(=O)(=O)c1ccc(Cl)c(Cl)c1 (racemic)
4. CCCCN(CCCC)C(=O)C(CCC(=O)O)CS(=O)(=O)c1ccc(Cl)c(Cl)c1 (racemic)
5. CCCCCN(CCCCC)C(=O)C(CCCC(=O)O)CS(=O)(=O)c1ccc(Cl)c(Cl)c1 (racemic)
6. CCCCCN(CCCCC)C(=O)C(CCC(=O)O)CS(=O)(=O)c1ccc(Cl)c(Cl)c1 (single isomer, unassigned) [Compound 20]

1: 5.52; 2: 5.06; 3: 7.02; 4: 6.55; 5: 6.64; 6: 6.96
